Quick reference: fold change permeability of the listed items.
Assay: modulators of brain endothelial barrier permeability, primary screen, cell-based, FITC-avidin fluorescence, HTS (AID 1963498); further: test concentration not given here
Details: actives lie on both sides
Active and inactive are the calls of the source. No stated cut-off is given here; in the data, active means fold change permeability below about 0.7 or above about 1.3; inactive means in between.

Some compounds with recorded fold change permeability:
Cn1cnc(CCN)c1 :: 0.9 (inactive)
CN[C@@H]1C[C@@H](c2ccc(Cl)c(Cl)c2)c2ccccc21 :: 1.2 (inactive)
CN1C2CCC1CC(OC(c1ccccc1)c1ccccc1N)C2 (stereo not given) :: 1.1 (inactive)
CCCN(CCC)C1CCc2ccc(O)cc2C1 (stereo not given) :: 1.1 (inactive)
Cc1c2ccncc2c(C)c2c1[nH]c1ccccc12 :: 1.2 (inactive)
NC(CCP(=O)(O)O)C(=O)O (stereo not given) :: 1 (inactive)

Record `NCCc1c[nH]c2ccc(O)cc12` . Reported fold change permeability: 1 (inactive)

Record `N[C@@H]1C[C@H]1c1ccccc1` . Reported fold change permeability: 0.9 (inactive)

Record `CCCN1CCC[C@@H]2Cc3nc(N)ncc3C[C@H]21` . Reported fold change permeability: 1.1 (inactive)

Record `N#CC(C#N)=Cc1ccc(O)c(O)c1` . Reported fold change permeability: 1.2 (inactive)

----------
Experiment: modulators of brain endothelial barrier permeability, primary screen, cell-based, FITC-avidin fluorescence, HTS (AID 1963498); further: test concentration not given here
Details: actives lie on both sides
# label = y if fold change permeability >= 1 else n

// query Confirm if fold change permeability reported for the compound `Cc1nnc2n1-c1sccc1C(c1ccccc1)=NC2` is 1 or above.
// result y

// query Confirm if fold change permeability reported for the compound CC(=O)[C@H]1CCC2C3CC[C@H]4C[C@H](O)CC[C@]4(C)C3CC[C@@]21C (some centres not stated) is 1 or above.
// result n

// query Confirm if fold change permeability reported for the compound `C=C(C)[C@H]1CN[C@H](C(=O)O)[C@H]1CC(=O)O` is 1 or above.
// result y

// query Confirm if fold change permeability reported for the compound `Cc1cc([C@@H]2CCCN2C)on1` is 1 or above.
// result y

// query Confirm if fold change permeability reported for the compound `S=C(NC1CCCCC1)N1CCC(c2cnc[nH]2)CC1` is 1 or above.
// result y

// query Confirm if fold change permeability reported for the compound COc1ccc(OC)c(C(O)C(C)N)c1 (configuration not stated) is 1 or above.
// result n

// query Confirm if fold change permeability reported for the compound `CC(C)NP(=O)(NC(C)C)OP(=O)(NC(C)C)NC(C)C` is 1 or above.
// result y

// query Confirm if fold change permeability reported for the compound C[C@]12CCC3C(CC[C@H]4C[C@H](O)CC[C@]34C)C1CC[C@@H]2C(=O)CO (some centres not stated) is 1 or above.
// result y

// query Confirm if fold change permeability reported for the compound `O=C[C@H](Cl)[C@@H](O)[C@H](O)[C@H](O)CO` is 1 or above.
// result y

----------
Assay: modulators of brain endothelial barrier permeability, primary screen, cell-based, FITC-avidin fluorescence, HTS (AID 1963498); further: test concentration not given here
Conditions: actives lie on both sides
Activity calls are given as the source filed them. Rule as the data show it: active = fold change permeability below about 0.7 or above about 1.3; inactive = in between.
Write down the outcome that applies. Available outcomes: active, inactive

// query Test call, this compound: `Cc1ccc(S(=O)(=O)N[C@@H](CCCCN)C(=O)CCl)cc1`
// result active

----------
Quick reference: fold change permeability of the listed items.
Assay: modulators of brain endothelial barrier permeability, primary screen, cell-based, FITC-avidin fluorescence, HTS (AID 1963498); further: test concentration not given here
Conditions: actives lie on both sides
Write the value as a bare number.

O=C(N[C@H]1CN2CCC1CC2)c1c[nH]c2ccsc2c1=O :: 0.9

Record `NCC1(CC(=O)O)CCCCC1` . Reported fold change permeability: 0.9

Record `Cc1ncc(CNC(=O)N(CCCl)N=O)c(N)n1` . Reported fold change permeability: 0.9

----------
Test: modulators of brain endothelial barrier permeability, primary screen, cell-based, FITC-avidin fluorescence, HTS (AID 1963498); further: test concentration not given here
Details: actives lie on both sides
The source made the active and inactive calls. Cut-off read from the data, not from the text of the source: active = fold change permeability below about 0.7 or above about 1.3; inactive = in between.
Write down the outcome that applies. Available outcomes: active, inactive

Check out these entries, answers already filled in.
O=C(O)[C@@H]1CCN1 :: inactive
CCC1(c2ccc(N)cc2)CCC(=O)NC1=O (stereo not drawn) :: inactive
O=C(CCCN1CCC2(CC1)C(=O)NCN2c1ccccc1)c1ccc(F)cc1 :: inactive
Cc1ccc2c(c1)C1(CCN(CCc3nc(-c4ccccc4)oc3C)CC1)OC(=O)N2 :: inactive
NCC(CP(=O)(O)O)c1ccc(Cl)cc1 (stereo not drawn) :: inactive
NC1CCc2cc(O)c(O)cc2C1 (stereo not drawn) :: active
CC(CCc1ccccc1)NC(C)C(O)c1ccc(O)cc1 (stereo not drawn) :: inactive
CCOC(=O)c1ccc(-c2ccc(OC(=O)N(C)Cc3cccc(-c4ccncc4)c3)cc2)cc1 :: inactive

// query Test call, this compound: COC(=O)N1CCN(C(=O)Cc2ccc(Cl)c(Cl)c2)C(CN2CCCC2)C1 (stereo not drawn)
// result active

----------
Assay: modulators of brain endothelial barrier permeability, primary screen, cell-based, FITC-avidin fluorescence, HTS (AID 1963498); further: test concentration not given here
Settings: actives lie on both sides
The source made the active and inactive calls. Cut-off read from the data, not from the text of the source: active = fold change permeability below about 0.7 or above about 1.3; inactive = in between.
Quick reference: fold change permeability of the listed items.

Record CC(C)(C)NCC(O)c1ccccc1Cl (stereo not given) . Reported fold change permeability: 0.7 (active)

Record `Clc1ccc(CO/N=C(\Cn2ccnc2)c2ccc(Cl)cc2Cl)c(Cl)c1` . Reported fold change permeability: 1.6 (active)

Record `Nc1ccc(CCN2CCN(c3cccc(C(F)(F)F)c3)CC2)cc1` . Reported fold change permeability: 1.8 (active)

Record `C#CCOC(=O)C1=CCCN(C)C1` . Reported fold change permeability: 1 (inactive)

Record `C[N+]1(C)CCN(c2ccccc2)CC1` . Reported fold change permeability: 1.2 (inactive)

----------
Quick reference: fold change permeability of the listed items.
Assay: modulators of brain endothelial barrier permeability, primary screen, cell-based, FITC-avidin fluorescence, HTS (AID 1963498); further: test concentration not given here
Details: actives lie on both sides
Write the value as a bare number.

Some molecules with recorded fold change permeability:
COc1ccc2[nH]cc(CCN)c2c1 :: 0.8
CP(=O)(O)C1=CCNCC1 :: 1.4
CC[C@@H](CO)NC(=O)[C@@H]1C=C2c3cccc4c3c(cn4C)C[C@H]2N(C)C1 :: 0.7
OCc1cnc[nH]1 :: 1.1
CC(C)=CCOc1c2occc2cc2ccc(=O)oc12 :: 1.5

Record `CN1CC[C@@]2(C)c3cc(OC(=O)Nc4ccccc4)ccc3N(C)[C@@H]12` . Reported fold change permeability: 1.4

Record `CC[C@@H](C(N)=O)N1CCCC1=O` . Reported fold change permeability: 0.9

Record `CC(=O)c1c(O)c(C)c(O)c(Cc2c(O)c3c(c(C(=O)/C=C/c4ccccc4)c2O)OC(C)(C)C=C3)c1O` . Reported fold change permeability: 2

Record `NCCc1c[nH]c2ccccc12` . Reported fold change permeability: 1.4

Record `CC[C@@]1(O)C(=O)OCc2c1cc1n(c2=O)Cc2cc3ccccc3nc2-1` . Reported fold change permeability: 1.4

Record NCC(O)c1ccc(O)cc1 (centres undefined) . Reported fold change permeability: 0.9

Record `N[C@@]1(C(=O)O)CC[C@@H](C(=O)O)C1` . Reported fold change permeability: 1

Record `CCCN1CCC[C@@H]2Cc3[nH]ncc3C[C@H]21` . Reported fold change permeability: 0.9

Record `C[C@@H]1[C@@H]2Cc3ccc(O)cc3[C@@]1(C)CCN2CC1CC1` . Reported fold change permeability: 1.3

Record `Cc1cccc(C)c1NC(=O)CN1CCCC1=O` . Reported fold change permeability: 1

Record `c1ccc(C[N+]23CN4CN(CN(C4)C2)C3)cc1` . Reported fold change permeability: 0.7

Record `Fc1ccc(C(OCCN2CCN(CCCc3ccccc3)CC2)c2ccc(F)cc2)cc1` . Reported fold change permeability: 1.6

Record `NCCc1c[nH]c2ccc(C(N)=O)cc12` . Reported fold change permeability: 1

Record CC(C)(O)[C@@H]1C2OC(=O)C1[C@]1(O)C[C@H]3O[C@]34C(=O)O[C@H]2[C@]14C (some centres undefined) (tested in a mixture with another compound) . Reported fold change permeability: 1.1

----------
Assay: modulators of brain endothelial barrier permeability, primary screen, cell-based, FITC-avidin fluorescence, HTS (AID 1963498); further: test concentration not given here
Conditions: actives lie on both sides
experimental.endpoint: fold change permeability
Write the value as a bare number.

Some compounds with recorded fold change permeability:
NC(=O)CN1CC(O)CC1=O (stereo not given) :: 0.8
COc1ccc2[nH]c3c(c2c1)CCNC3 :: 1
NC(=O)c1cc(N2CC2)c([N+](=O)[O-])cc1[N+](=O)[O-] :: 1

Record CCC1(C2=NCCN2)Cc2ccccc2O1 (stereo not given) . Reported fold change permeability: 1

Record `CCCN(CCC)[C@@H]1CCc2cccc(O)c2C1` . Reported fold change permeability: 1.2
